Biological target: T1, human NMUR1 (human, UniProt Q9HB89 1-426)
T1 sequence (looked up): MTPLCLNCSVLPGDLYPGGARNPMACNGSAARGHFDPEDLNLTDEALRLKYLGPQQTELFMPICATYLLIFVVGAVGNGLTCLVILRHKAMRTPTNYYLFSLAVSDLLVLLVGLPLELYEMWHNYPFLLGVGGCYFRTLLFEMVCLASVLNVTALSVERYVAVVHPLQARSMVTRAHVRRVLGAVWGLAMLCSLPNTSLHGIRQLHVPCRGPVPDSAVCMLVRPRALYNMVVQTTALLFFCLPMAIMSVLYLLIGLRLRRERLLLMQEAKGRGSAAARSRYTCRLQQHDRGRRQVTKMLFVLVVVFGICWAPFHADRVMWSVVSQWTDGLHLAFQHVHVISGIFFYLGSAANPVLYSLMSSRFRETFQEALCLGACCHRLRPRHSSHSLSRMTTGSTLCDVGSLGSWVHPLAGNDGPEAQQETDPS
Assay: cell-based or functional assay
No end group written: not given here. (PEG)2 40 kDa = branched PEG of 40 kDa linked via the Cys side-chain thiol (code C2 = Cys(PEG)2 40 kDa)
endpointName: % Activity (FLIPR) (%)
Return type: number; implicit unit %.

Reference set (5 entries):
Ac-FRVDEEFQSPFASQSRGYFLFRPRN-NH2 [NMU2]; 99
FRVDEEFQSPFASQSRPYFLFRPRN-NH2 [NMU4]; 97
GYFLFRPRN-NH2 [NMU3]; 98.9
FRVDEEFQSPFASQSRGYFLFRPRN-NH2 (not fully specified (N-terminus)) [NMU1]; 83.7
Ac-C((PEG)2 40 kDa)FQSPFASQSRGYFLFRPRN-NH2 [NMU20]; 100

Pending binder:
Given the binder Ac-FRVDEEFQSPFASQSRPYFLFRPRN-NH2 [NMU5] , write its reported % Activity (FLIPR).
98.1
